Source of measurements: PubChem BioAssay (NCI)

Test system: OVCAR-5 ovarian
Test: NCI-60 one-dose screen, 48 h (100 = growth as untreated, 0 = no growth, -100 = all killed)
Details: 10 µM unless noted
This is part of a sample that, as a whole, favours compounds with a hit. Of some 83,000 tested, about 20% had one in any assay.
Lab note - cut at 30% for growth: true if strictly below, false if not.

Dear reviewer, please state whether O=C(O)CNC(=O)C(Cl)(Cl)Cl has growth strictly beneath 30%.
false

Dear reviewer, please state whether COc1cc2c(cc1OCc1ccccc1)C(CC(C)C)=[N+](C)CC2 has growth strictly beneath 30%.
false

Dear reviewer, please state whether CC(=O)[O][Hg][O]C(C)=O has growth strictly beneath 30%.
false

Dear reviewer, please state whether COc1cc2ncnc(Nc3ccc(F)c(Cl)c3)c2cc1OCC(=O)N1CCN(C)CC1 has growth strictly beneath 30%.
false

Dear reviewer, please state whether CCn1cnc2c(Nc3cccc(Cl)c3)nc(N[C@@H]3CCCC[C@@H]3N)nc21 has growth strictly beneath 30%.
true

Dear reviewer, please state whether O=C1C(N2CC2)=C(N2CC2)C(=O)C(N2CC2)=C1N1CC1 has growth strictly beneath 30%.
true

Dear reviewer, please state whether ClCCN(CCCl)c1ccc(/C=N/Nc2ncnc3nc[nH]c23)cc1 has growth strictly beneath 30%.
false

Dear reviewer, please state whether CC[C@H](C)[C@H](NC(=O)N[C@@H](C)c1ccccc1)C(=O)N(C)[C@H](C[C@@H](OC(C)=O)c1nc(C(=O)N[C@@H](Cc2ccccc2)C[C@H](C)C(=O)OC)cs1)C(C)C has growth strictly beneath 30%.
true

* * *

Tested on: A498 renal
Experiment: NCI-60 one-dose screen, 48 h (100 = growth as untreated, 0 = no growth, -100 = all killed)
Conditions: 10 µM
This is part of a sample that, as a whole, favours compounds with a hit. Of some 83,000 tested, about 20% had one in any assay.
Quantity name: growth (%)
Your answer is read as %, so omit the unit and give the number.

Worked examples follow.
[[record]]
molecule = "Oc1c(O)c(Cl)c(Cl)c(Cl)c1Cl"
quantity_name = "growth"
unit_label = "%"
value_reported = 63.7

[[record]]
molecule = "C[C@]12CC[C@H]3[C@@H](CC4SC(N)=NC45C/C(=N/NC(N)=O)CC[C@]35C)[C@@H]1CCC2=O (some centres not stated)"
quantity_name = "growth"
unit_label = "%"
value_reported = 91.6

[[record]]
molecule = "COC(=O)[C@@H](C)C[C@H](Cc1ccccc1)NC(=O)c1csc([C@@H](C[C@H](C(C)C)N(C)C(=O)[C@@H](NC(=O)[C@H]2CCCCN2C)C(C(F)(F)F)C(F)(F)F)OC(C)=O)n1"
quantity_name = "growth"
unit_label = "%"
value_reported = -4.49

[[record]]
molecule = "C/C(=C\\c1ccn(-c2ccccc2N)n1)[C@@H]1C[C@@H]2O[C@]2(C)CCC[C@H](C)[C@H](O)[C@@H](C)C(=O)C(C)(C)[C@@H](O)CC(=O)O1"
quantity_name = "growth"
unit_label = "%"
value_reported = 13

[[record]]
molecule = "O[C@H](CN1CC1)[C@@H](O)CN1CC1"
quantity_name = "growth"
unit_label = "%"
value_reported = 95.1


I'd like to know its growth. The molecule in question is CC(C)CCC(=O)O[C@H]1CC[C@H]2[C@@H]3CCC4=CC(=O)CC[C@]4(C)[C@H]3CC[C@]12C
77.2

I'd like to know its growth. The molecule in question is Cc1cc(C)c(CBr)c(C)c1
81.4

I'd like to know its growth. The molecule in question is Cc1ccc(N2COOC3(OOC2)C2CC4CC(C2)CC3C4)cc1
88.4

I'd like to know its growth. The molecule in question is O=C1CC2(CC3(Cl)C(Cl)=C(Cl)C2(Cl)C3(Cl)Cl)C(=O)O1 (configuration not stated)
98.9

I'd like to know its growth. The molecule in question is O=[N+]([O-])c1cc(I)cc([N+](=O)[O-])c1
111

* * *

Test system: ACHN renal
Test: NCI-60 one-dose screen, 48 h (100 = growth as untreated, 0 = no growth, -100 = all killed)
Conditions: 10 µM unless noted
This is part of a sample that, as a whole, favours compounds with a hit. Of some 83,000 tested, about 20% had one in any assay. The source made the active and inactive calls. Rule for the calls: active = growth percent below 10; inactive = the rest.
Quantity name: growth

Worked examples follow.
[[record]]
compound = "COc1ccc(C2=CC(c3ccc(OC)c(OC)c3)c3c(c4ccccc4oc3=O)O2)cc1OC (stereo unspecified)"
value_reported = "52.7% (inactive)"

[[record]]
compound = "COC(=O)CC12CC(NC(=O)c3csc([C@@H](C[C@H](C(C)C)N(C)C(=O)[C@@H](NC(=O)[C@H]4CCCCN4C)C(C)C)OC(C)=O)n3)(C1)C2"
value_reported = "17.2% (inactive)"

[[record]]
compound = "COC(=O)[C@@H](C)C[C@H](Cc1ccccc1)NC(=O)c1csc([C@@H](C[C@H](C(C)C)N(C)C(=O)[C@@H](NC(=O)CN(C)C)C2CC2)OC(C)=O)n1"
value_reported = "25.3% (inactive)"


I'd like to know its growth. The compound in question is CNC(=O)Oc1ccc(N(C)C)cc1C(C)C
99.4% (inactive)

I'd like to know its growth. The compound in question is COC(=O)[C@@H](C)C[C@H](Cc1ccccc1)NC(=O)c1nc([C@@H](C[C@H](C(C)C)N(C)C(=O)[C@@H](NC(=O)[C@H]2CCCN2C)C(C)C)OC(C)=O)sc1C
19.6% (inactive)

I'd like to know its growth. The compound in question is Cc1c(O)c(CN(CCCl)CCCl)cc(CN(CCCl)CCCl)c1O
42.5% (inactive)

* * *

Tested on: SW-620 colon
Assay: NCI-60 one-dose screen, 48 h
Settings: 10 µM unless noted
Compounds without any hit were thinned out: in the full panel of roughly 83,000, 20% have a hit. Activity calls are given as the source filed them. Rule for the calls: active = growth percent below 10; inactive = the rest.
// allowed return values: yes (active), no (inactive)

The examples below pair each entry with its known result.
[[record]]
compound = "Cc1ccc(Nc2nc3c(s2)C2=CC[C@@H]4[C@H](CC[C@]5(C)C(=O)CC[C@@H]45)[C@@]2(C)CC3)cc1"
answer_label = "yes"

[[record]]
compound = "NC(=O)c1c(Br)n(C2OC(CO)C(O)C2O)c2ncnc(N)c12 (configuration not stated)"
answer_label = "yes"

[[record]]
compound = "O=C(CC1(O)C(=O)Nc2ccc(Cl)cc21)c1ccc(C(=O)NCC2CCC3(CC2)OOC2(CCCCC2)OO3)cc1 (configuration not stated)"
answer_label = "yes"

[[record]]
compound = "O=C([O][Hg][CH2]C1COCC([CH2][Hg][O]C(=O)c2ccccc2)O1)c1ccccc1 (configuration not stated)"
answer_label = "yes"

[[record]]
compound = "CC[CH2][Sn]([Cl])([Cl])[CH2]CC"
answer_label = "no"


Short answer needed: outcome of this test for O=C(CC1(O)C(=O)N(Cc2ccccc2)c2ccc(Cl)cc21)c1ccc(C(=O)NCC2CCC3(CC2)OOC2(CCCCC2)OO3)cc1 (configuration not stated) ?
yes

Short answer needed: outcome of this test for CC[C@H](C)[C@H](NC(=O)[C@H]1CCCCN1C)C(=O)N(C)[C@H](C[C@@H](OC(C)=O)c1nc(C(=O)NC23CC(C(=O)OC)(C2)C3)cs1)C(C)C ?
no

Short answer needed: outcome of this test for CC[C@H](C)[C@H](NC(=O)[C@H]1CCCCN1C)C(=O)N(C)[C@H](CCc1nc(C(=O)N[C@@H](Cc2ccccc2)C[C@H](C)C(=O)OC)cs1)C(C)C ?
no

* * *

Examples of compounds with documented growth follow.
System: HL-60(TB) leukemia
Experiment: NCI-60 one-dose screen, 48 h (100 = growth as untreated, 0 = no growth, -100 = all killed)
Conditions: 10 µM unless noted
The panel holds about 83,000 compounds, 20% with a hit somewhere; the sample as a whole holds those more often. Calls of active or inactive are those of the source. The calls were made as follows: active = growth percent below 10; inactive = the rest.

Worked examples follow.
[[record]]
compound = "O=C(CCl)c1ccc([N+](=O)[O-])o1"
value_reported = "-68.9% (active)"

[[record]]
compound = "COc1ccc2c(c1)c(-c1nc(-c3cn(C)c4ncccc34)cs1)cn2CCCCN1CCCCC1"
value_reported = "-64.9% (active)"


// fetch HL-60(TB) leukemia growth for CNC12C3C4C1C1C2C3C41C(=O)N[C@H](C(=O)N(C)[C@H](C[C@@H](OC(C)=O)c1nc(C(=O)N[C@@H](Cc2ccccc2)C[C@H](C)C(=O)OC)cs1)C(C)C)C1CC1 (some centres undefined)
-34.9% (active)

// fetch HL-60(TB) leukemia growth for CC1(C)[C@H](O)[C@H](F)C[C@@]2(C)Oc3ccc(C(=O)Nc4ccc5c(c4)NC(=O)C54CCN(CCCCC#N)CC4)cc3C[C@H]12
30.5% (inactive)

// fetch HL-60(TB) leukemia growth for O=C1C(=Cc2cn(Cc3ccccc3)c3ccccc23)C(=O)N(Cc2ccccc2)C(=O)N1Cc1ccccc1
96.4% (inactive)

// fetch HL-60(TB) leukemia growth for O=C1Nc2ccccc2C2c3cccn3-c3ccccc3CN12 (centres undefined)
44.6% (inactive)

// fetch HL-60(TB) leukemia growth for COC(=O)[C@@H](C)C[C@H](Cc1ccccc1)NC(=O)c1csc([C@@H](C[C@H](C(C)C)N(C)C(=O)[C@H](C)NC(=O)[C@H]2CCCN2C)OC(C)=O)n1
-21.2% (active)
